Kindly state fold change of affinity for each of the entries shown.
# testedTarget: T1, Human CD137 ECD (human)
# T1 construct: entry includes C-terminal His-tag and biotin acceptor peptide; also called human CD137 extracellular domain; 4-1BB
# T1 sequence (chain, as listed by the source limits assumed): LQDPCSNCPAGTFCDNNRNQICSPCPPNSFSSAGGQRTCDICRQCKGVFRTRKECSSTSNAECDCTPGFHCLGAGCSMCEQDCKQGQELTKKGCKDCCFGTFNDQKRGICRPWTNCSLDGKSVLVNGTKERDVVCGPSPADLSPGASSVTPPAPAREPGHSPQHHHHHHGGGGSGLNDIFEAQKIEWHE
# protocolText: Biacore SPR, vs parent H183/L072
Form entry: value (fold) — number only.

Using the record for H183/L072 VL G91E (antibody, name in Kabat numbering, V domains shown, Dual-Ig) VH: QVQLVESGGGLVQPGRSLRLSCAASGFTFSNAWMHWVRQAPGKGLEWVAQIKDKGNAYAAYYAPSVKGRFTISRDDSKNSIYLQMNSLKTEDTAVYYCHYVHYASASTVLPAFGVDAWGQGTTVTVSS VL: DIVMTQSPLSLPVTPGEPASISCQASQELVHMNRNTYLHWYQQKPGQAPRLLIYKVSNRFPGVPDRFSGSGSGTDFTLKISRVEAEDVGVYYCAQETSVPFTFGQGTKLEIK , report its fold change of affinity. 0

Form field: reported fold change of affinity of H183/L072 VL V94K (antibody, name in Kabat numbering, V domains shown, Dual-Ig) VH: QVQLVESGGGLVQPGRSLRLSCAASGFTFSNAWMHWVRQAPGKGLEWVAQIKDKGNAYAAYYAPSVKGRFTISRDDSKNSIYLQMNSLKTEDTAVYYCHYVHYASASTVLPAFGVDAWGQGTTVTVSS VL: DIVMTQSPLSLPVTPGEPASISCQASQELVHMNRNTYLHWYQQKPGQAPRLLIYKVSNRFPGVPDRFSGSGSGTDFTLKISRVEAEDVGVYYCAQGTSKPFTFGQGTKLEIK 0.1

# input binder: H183/L072 VL M27eS (antibody, name in Kabat numbering, V domains shown, Dual-Ig) VH: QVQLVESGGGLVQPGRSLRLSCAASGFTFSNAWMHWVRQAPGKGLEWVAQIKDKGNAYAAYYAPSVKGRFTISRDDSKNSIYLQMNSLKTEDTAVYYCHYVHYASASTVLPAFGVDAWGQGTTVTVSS VL: DIVMTQSPLSLPVTPGEPASISCQASQELVHSNRNTYLHWYQQKPGQAPRLLIYKVSNRFPGVPDRFSGSGSGTDFTLKISRVEAEDVGVYYCAQGTSVPFTFGQGTKLEIK ; wanted: its fold change of affinity 0.9
